Cited source: paper PMC10782225

study_system: human α7‐only‐nAChR (Homo sapiens, UniProt P36544)
Sequence (P36544 23-502 limits assumed): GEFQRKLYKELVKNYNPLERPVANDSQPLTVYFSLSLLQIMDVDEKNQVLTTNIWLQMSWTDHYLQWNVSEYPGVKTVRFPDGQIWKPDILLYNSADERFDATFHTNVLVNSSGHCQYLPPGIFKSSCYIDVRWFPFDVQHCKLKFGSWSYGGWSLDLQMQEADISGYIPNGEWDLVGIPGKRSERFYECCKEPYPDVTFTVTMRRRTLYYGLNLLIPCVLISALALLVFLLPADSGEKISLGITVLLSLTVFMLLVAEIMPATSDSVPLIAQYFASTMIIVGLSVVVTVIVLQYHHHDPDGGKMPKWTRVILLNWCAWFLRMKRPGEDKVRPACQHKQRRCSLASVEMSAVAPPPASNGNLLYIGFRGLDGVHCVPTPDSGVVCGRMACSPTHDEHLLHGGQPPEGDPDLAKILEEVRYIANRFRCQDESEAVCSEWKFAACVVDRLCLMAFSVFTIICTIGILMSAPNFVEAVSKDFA
attribute_measured: Kd (nM)
Numbers only, in nM.

The cases that follow already have their Kd on record.
compound: CC(C)C[C@@H]1NC(=O)[C@H](CC(C)C)NC(=O)[C@@H]2CSSC[C@H](NC(=O)CN)C(=O)N[C@@H](CSSC[C@@H](C(N)=O)NC(=O)[C@H](Cc3ccc(O)cc3)NC(=O)[C@H](CC(=O)O)NC(=O)[C@@H]3CCCN3C(=O)[C@H](CC(N)=O)NC(=O)[C@H](CC(N)=O)NC1=O)C(=O)N[C@@H](CO)C(=O)N[C@@H](Cc1c[nH]cn1)C(=O)N1CCC[C@H]1C(=O)N1CCC[C@H]1C(=O)N2 [[F9L]]
observed_result: 20
//
compound: NCC(=O)N[C@H]1CSSC[C@@H]2NC(=O)[C@@H]3CCCN3C(=O)[C@@H]3CCCN3C(=O)[C@H](Cc3c[nH]cn3)NC(=O)[C@H](CO)NC(=O)[C@H](CSSC[C@@H](C(N)=O)NC(=O)[C@H](Cc3ccc(O)cc3)NC(=O)[C@H](CC(=O)O)NC(=O)[C@@H]3CCCN3C(=O)[C@H](CC(N)=O)NC(=O)[C@H](CC(N)=O)NC(=O)[C@H](Cc3ccc(O)cc3)NC(=O)[C@H](Cc3ccccc3)NC2=O)NC1=O [[L10Y]]
observed_result: 671

Consider now this further compound.
Qu. Please report the recorded Kd for CC(C)C[C@@H]1NC(=O)[C@H](Cc2ccccc2)NC(=O)[C@@H]2CSSC[C@H](NC(=O)CN)C(=O)N[C@@H](CSSC[C@@H](C(N)=O)NC(=O)[C@H](Cc3ccc(O)cc3)NC(=O)[C@H](CC(=O)O)NC(=O)[C@@H]3CCCN3C(=O)[C@H](CC(N)=O)NC(=O)[C@H](CC(N)=O)NC1=O)C(=O)N[C@@H](CCCNC(=N)N)C(=O)N[C@@H](Cc1c[nH]cn1)C(=O)N1CCC[C@H]1C(=O)N1CCC[C@H]1C(=O)N2 [[S4R]] .
Ans. 15
